Target: T1, LIN7A, O14910
T1 sequence (O14910 103-200, limits assumed, looked up): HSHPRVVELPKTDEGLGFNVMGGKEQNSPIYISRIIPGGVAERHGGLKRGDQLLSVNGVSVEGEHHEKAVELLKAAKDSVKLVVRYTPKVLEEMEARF
Experiment: holdup assay
Design: key: below the threshold = too weak to quantify, mostly under pKd 3.1 to 4
Conditions: plain residues with an end cap or a label only (N-terminal biotin on a linker: ado-ado)
metric name: pKd

binder	metric name	observed value
RDPPAEWTRV [PTPN18, Q99952]	pKd	3.58
ELSATVTTDC [TRIP6, Q15654]	pKd	below the threshold
PTPDLPQTRV [KLHDC7A, Q5VTJ3]	pKd	below the threshold
STKRKLASAV [NCF1, P14598]	pKd	below the threshold
NTANRRTTPV [CACNG2, Q9Y698]	pKd	below the threshold
SPDRDRESIV [SCN5A, Q14524]	pKd	below the threshold
DGVNEKVSCV [HTR2A, P28223]	pKd	3.51
QLSFNTDTLC [ABCA2, Q9BZC7]	pKd	below the threshold

Where do these numbers come from? They come from paper PMC9482650.
